In this section we review reported protein stability index values for a set of variants.
B1: WDFY2 (parent)
chain: FWNFKQMWDSKKIGLRQHHCRKCG

variants of: B1; test: protein stability index of a GFP-peptide fusion (GPS, HEK-293T) (PSI 1-6); higher = more stable; conditions: c terminus: a fixed tail appended;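 note: lentivirally expressed fusions sorted by FACS into six bins by GFP to DsRed ratio, PSI derived from sequencing read proportions per bin multiplied by bin number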
Please reply with the number alone, leaving off any unit.

Solved cases (4 shown):
- R21D: 2.04
- F1Y: 1.52
- C20W: 3.08
- N3L: 1.42

// protein stability index lookup, variant = K12D , result: 1.88

Form field protein stability index, entry L15P : 2.68

Summary for this variant, M7F : protein stability index is 2.09

This collection of values is drawn from the supplement of paper PMC10567573.
